Measured Activity C.a. (relative activity in relation to Ard1) by item
test system: Candida albicans; assay: anti-Candida albicans growth inhibition test in liquid medium (96-well microplates); format: cell-based; settings: fold relative to Ard1
Bridges are numbered along the chain shown (N, C = ends). Where no end group is shown, it is not given here.
// response body must contain only the number

Some entries whose results are on file:
For Candida albicans, provide Activity C.a. (relative activity in relation to Ard1) of DKLIGSCVWGAVNYTSNCNAECKRRGYKGGHCGSFLNVNCWCET (disulfide 7-32, 18-40, 22-42 (inferred)) [pEM35] please.
4

For Candida albicans, provide Activity C.a. (relative activity in relation to Ard1) of DKLIGSCVWLAVNYTSNCNAECKRRGYKGGHCGSFANVNCWCQT [pEM57, peptide derived from Ard1] please.
1

For Candida albicans, provide Activity C.a. (relative activity in relation to Ard1) of DKLIGSCVWGAVNYTSNCNAECKRRGYKGGHCGSFINVNCWCET [pEM32, peptide derived from Ard1] please.
1

For Candida albicans, provide Activity C.a. (relative activity in relation to Ard1) of NKLIGSCVWGAVNYTSNCNAECKRRGYKGGHCGSFANVNCWCET [pEM40, peptide derived from Ard1] please.
2

Others:
For Candida albicans, provide Activity C.a. (relative activity in relation to Ard1) of DKLIGSCVWLAVNYTSNCNAECKRRGYKGGHCGSFLNVNCWCET [pEM54, peptide derived from Ard1] please.
1

For Candida albicans, provide Activity C.a. (relative activity in relation to Ard1) of DKLIGSCVWGAVNYTSNCNAECKRRGYKGGHCGSFINVNCWCER [pEM49, peptide derived from Ard1] please.
3

For Candida albicans, provide Activity C.a. (relative activity in relation to Ard1) of DKLIGSCVWGAVNYTSNCNAECKRRGYKGGHCGSFANINCWCET [pEM33, peptide derived from Ard1] please.
1

For Candida albicans, provide Activity C.a. (relative activity in relation to Ard1) of DKLIGSCVWGAVNYTSNCNAECKRRGYKGGHCGSFANVNCWCQT (disulfide 7-32, 18-40, 22-42 (inferred)) [pEM31] please.
2

For Candida albicans, provide Activity C.a. (relative activity in relation to Ard1) of DKLIGSCVWGAVNYTSNCNAECKRRGYKGGHCGSFLNINCWCET [pEM34, peptide derived from Ard1] please.
4

For Candida albicans, provide Activity C.a. (relative activity in relation to Ard1) of DKLIGSCVWGAVNYTSNCNAECKRRGYKGGHCGSFANVNCWCER [pEM30, peptide derived from Ard1] please.
4
